- Test system: cynomolgus CD45 ectodomain
- Sequence (as listed by the source): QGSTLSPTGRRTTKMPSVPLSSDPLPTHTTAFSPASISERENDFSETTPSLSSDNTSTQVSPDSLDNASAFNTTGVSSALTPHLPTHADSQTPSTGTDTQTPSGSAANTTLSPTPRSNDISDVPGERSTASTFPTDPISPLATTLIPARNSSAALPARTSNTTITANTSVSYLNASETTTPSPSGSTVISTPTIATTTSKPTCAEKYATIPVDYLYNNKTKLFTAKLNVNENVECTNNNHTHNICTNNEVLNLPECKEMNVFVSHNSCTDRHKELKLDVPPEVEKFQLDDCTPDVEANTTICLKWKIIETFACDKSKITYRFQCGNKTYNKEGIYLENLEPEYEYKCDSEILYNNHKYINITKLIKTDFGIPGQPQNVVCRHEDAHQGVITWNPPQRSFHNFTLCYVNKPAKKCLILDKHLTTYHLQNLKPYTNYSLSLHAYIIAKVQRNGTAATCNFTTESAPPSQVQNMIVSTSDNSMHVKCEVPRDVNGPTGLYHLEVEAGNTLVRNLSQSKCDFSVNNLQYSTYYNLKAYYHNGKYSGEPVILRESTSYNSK
- protocol.description: Biolayer interferometry (BLI, Octet) binding of immobilized IgG to purified CD45 ectodomain
- conditions.used: Table 2, Cynomolgus CD45
- Method: Antibody binding studies were performed at 25° C. in 1×PBS supplemented with 0.1% w/v bovine serum albumin with a Pall ForteBio Octet Red96 using biolayer interferometry (BLI). The apparent monovalent affinity (KD), apparent association rate (KON), and apparent dissociation rate (KOFF) were determined by local full fitting with a 1:1 binding model as calculated by ForteBio data analysis software version 10 of each IgG to purified human, cynomolgus or rhesus CD45 ectodomain. […]
measure: Kdis (s⁻¹)
Kindly provide the numeric value in s⁻¹ only, without the unit symbol.

molecule="Ab4: affinity matured human anti-CD45 IgG derived from Ab1; VH SEQ ID NO:31, VL SEQ ID NO:35 (antibody, V domains shown) VH: EVQLVESGGGLVQPGGSLRLSCAASGFTFEAYSMNWVRQAPGKGLEWVSYISLSGATIHYADSVKGRFTISRDNAKNSLYLQMNSLRAEDTAVYYCARGGQYYYTSSDYGEVAFDIWGQGTMVTVSS VL: DIVMTQSPLSLPVTPGEPASISCRSSQSLVSNGYNYLDWYLQKPGQSPQLLIYFGSSRASGVPDRFSGSGSGTDFTLKISRVEAEDVGVYYCMQRRRTPWSFGGGTKVEIK" measure=Kdis observed_measurement=7.89e-05

Switching to the query record.
Entry Ab6: affinity matured human anti-CD45 IgG derived from Ab1; VH SEQ ID NO:51, VL SEQ ID NO:55 (antibody, V domains shown) VH: EVQLVESGGGLVQPGGSLRLSCAASGFTFEAYSMNWVRQAPGKGLEWVSYISLSGATIHYADSVKGRFTISRDNAKNSLYLQMNSLRAEDTAVYYCARGGQYYYTSSDYGEVAFDIWGQGTLVTVSS VL: DIVLTQSPLSLPVTPGEPASISCRSSQSLVSSGYNYLDWYLQKPGQSPQLLIYFGSSRASGVPDRFSGSGSGTDFTLKISRVEAEDVGVYYCMQRRRTPWSFGGGTKVEIK has what Kdis?
0.000154
